folding stability dG unfold values, listed per item
experiment: folding stability dG unfold from chymotrypsin proteolysis; higher = more stable
Kindly answer with a numeric value in kcal/mol, unit omitted.

Here are 5 sequences together with their reported answers.
{"sequence-content": "SAMKIKIKVIGVLKPENHALIFLELDDSIPPEIPVVIRIKNENGEILEIPIEGNRALLVVDDRKIEILTSAG [r14_350_TrMRF]", "recorded-number": 1.67}
{"sequence-content": "SAGGSAGGSEPEEPEYILIERVEAGEKPKITITFKDGTKKEIEVKPGETILIKVPKDAKIEVESAGGSAGGS [r12_553_TrROS_Hall]", "recorded-number": 1.1}
{"sequence-content": "SAGGSAGGSAGATISPDGYKIVVTNADGEKVTLTFDSLEEAKAALEALLPPGARVFIEKVSAGGSAGGSAGG [r11_983_TrROS_Hall]", "recorded-number": 2.01}
{"sequence-content": "SAGGSAGGSAGGGMTTTKTEVSFSPAGGLVTTKSTERLPGTGELKEVTSVTPLASSGTTSAGGSAGGSAGGS [r10_296_JUSTAS]", "recorded-number": 0.846}
{"sequence-content": "SAGGSAGGSAGGDKNKPPKLKVKLKIEFPFTLPDGVKVRLEVEIDLDSDVIEPRAEVIDSSAGGSAGGSAGG [r7_213_TrMRF]", "recorded-number": 2.98}

Documented folding stability dG unfold of SAGTVFVAHSDDRPPVAAPETGTVTLPAPDGARVTLRRLPDGTAVVTPDGGESRTLGPGARVEVRLLPASAG [r5_869_TrMRF] : -0.156

Documented folding stability dG unfold of SMRVVLVRPVPPELKEAELELRLPLPDGSEVEVKAETGEDFVVVTIELDDESAAEAVVEELEKLLEELLGSA [r9_790_TrMRF] : 1.17

Documented folding stability dG unfold of SAGGSEVVLEAEGVDPATGKPYTVRVVYDKETGVPVVEVRDADGTLLAVIPVPPDKALEALKELGVSAGGSA [r2_115_TrMRF] : 3.05

Documented folding stability dG unfold of SAGGSAGGSAGLPENVKLVKVTVTITYPNGEKETIPVVAPVPVLEKLLSLPGLPVSVTDESAGGSAGGSAGG [r17_313_TrMRF] : 0.0595

Documented folding stability dG unfold of SAGGSARVVTAVARHPNSTEATLTVTDSGAAGGTSEITFASPEDLLAAIRNLPASVASVSVRPLLPSAGGSA [r15_589_TrMRF] : 0.806

Documented folding stability dG unfold of SMKPGDWKWIMFRFPDAENMEITIPIPLPPGYRVWFFFMNGERHEIPAGQEIKFKMPPGEPMWMMIWIWKSA [r9_79_TrROS] : 4.7

Documented folding stability dG unfold of SAGGSAGGSAGGSMVTLTVEKTFTSLLKTPESELIPVTSTVTEEVTIPESEATEELIKELSAGGSAGGSAGG [r7_777_JUSTAS] : -0.0189

###

assay: folding stability dG unfold from chymotrypsin proteolysis; higher = more stable
Field: class. Source value: folding stability dG unfold. Ranges: range 1 (below 0.7 kcal/mol), range 2 (0.7 kcal/mol to below 3 kcal/mol), range 3 (3 kcal/mol or more)

Reference set (2 entries):
{"sequence-content": "SAGGSAGGMKEGETRTITFWANVKPGDLEKIANHMMKFGWPIKKVDIKRHPENGMVRVSITIRKSAGGSAGG [r6_514_TrROS]", "class-assignment": "range 2"}
{"sequence-content": "SAGGSAGGSAVTVDPSSNVVTTTDPATGTSTVTTTPPLPNGTPVLTSTTTTDAAGTPTTTTVTSAGGSAGGS [r12_952_JUSTAS]", "class-assignment": "range 2"}

Okay, now this sequence:
Asked: Please indicate the class for SAGGSAGGSAGGSKKKIKIYIENENGEKKTIEIEVEGDIDEIAKELAKKYNVKIVKIEPSAGGSAGGSAGGS [r4_412_TrROS_Hall] based on its folding stability dG unfold.
Given back: range 3
